experiment: in vitro
measurement type: fraction unbound

Give me measured fraction unbound, please, for this molecule: C[S+](CC[C@H](N)C(=O)O)C[C@H]1O[C@@H](n2cnc3c(N)ncnc32)[C@H](O)[C@@H]1O (single isomer, unassigned; (+))
0.95 to 0.97
